Test system: DMS 114 small cell lung
TEST DETAILS: NCI tumour cell line growth inhibition, 48 h
Entries and their TGI

Solved cases (4 shown):
MOLECULE	RESULT
CCOC(=O)N(c1ccccc1)N(CC)C(=O)/C(C)=N/Nc1ccc([N+](=O)[O-])cc1	43.5 µM
NC(=O)NC1C(C(N)=O)N(Cc2ccccc2)C(=O)N1Cc1ccccc1 (stereo not given)	> 100 µM
Cc1c(/C=N/N(C)C)oc2c1cc(O)c1ncccc12	8.59 µM
CC(C)(C)C(C#N)(C#N)c1ccc(C(C#N)(C#N)C(C)(C)C)nn1	> 100 µM

Next molecule, TGI to be filled in.
Input line: Specify reported TGI for the molecule shown: Nc1ncnc2c1ncn2C1CC(OCc2ccccc2[N+](=O)[O-])C(CO)O1 (stereo not given)
Output line: 47.2 µM

====

Entries and their TGI
Test system: BT-549 breast
TEST DETAILS: NCI tumour cell line growth inhibition, 48 h
Respond numerically; units are µM and should not be typed.

QUERY SMILES	TGI [µM]
COc1ccc(N=N/C(C(=O)C(F)(F)F)=C(\O)c2ccc(Cl)cc2)cc1	47.2

Input line: Specify reported TGI for the compound shown: `COc1ccc(/C(C#N)=C2C=C/C(=N/O)c3ccccc3\2)cc1`
Output line: 8.18

====

Tested on: IGROV1 ovarian
TEST DETAILS: NCI tumour cell line growth inhibition, 48 h
ENDPOINT LABEL: TGI (µM)
Respond numerically; units are µM and should not be typed.

Solved cases (2 shown):
QUERY SMILES	MEASUREMENT TARGET	RESULT UNIT	TGI
C=CC(=O)N1CC2(CC(n3nc(-c4ccc5c(cnn5C)c4)c(-c4c(Cl)c(C)cc5[nH]ncc45)c3C)C2)C1	IGROV1 ovarian	µM	8.18
COC(=O)c1ccc(NC(=O)Oc2ccc(N(CCCl)CCCl)cc2)cc1	IGROV1 ovarian	µM	59.8

Input line: Specify reported TGI for the compound shown: `CCc1ccccc1NNc1cc(=O)[nH]c(=O)[nH]1`
Output line: 37.8

====

Test system: HCT-116 colon
TEST DETAILS: NCI tumour cell line growth inhibition, 48 h
ENDPOINT LABEL: TGI

Solved cases (5 shown):
COMPOUND	TGI
c1cc2c(cn1)Nc1ccncc1S2	69.5 µM
CCOC(=O)c1cnc2c(C)cccc2c1Nc1ccc(C(C)=O)cc1	> 100 µM
COC(=O)CSSCc1ccc([N+](=O)[O-])cc1	59.6 µM
CN(c1ccccc1)c1c(Cl)c(=O)oc2c1ccc1occc12	> 100 µM
COC(OC)[C@@H]1OC[C@@H](O)[C@@H]1n1cnc2c(N)ncnc21	> 100 µM

Next compound, TGI to be filled in.
Input line: Specify reported TGI for the compound shown: `COc1cc2c(=O)[nH]c3cc([N+](=O)[O-])ccc3c2cc1[N+](=O)[O-]`
Output line: > 100 µM

====

Test system: HL-60(TB) leukemia
TEST DETAILS: NCI tumour cell line growth inhibition, 48 h; in the data active = GI50 below about 0.43 µM; inactive = the rest
Hi there, use one of these labels in your reply, thanks! active, inactive

MOLECULE	ANSWER LABEL
O=C1NC(=NCCCc2ccccc2)S/C1=C\c1ccc2ncccc2c1	inactive
CC(=O)[CH-]C(=O)c1ccccc1.CC(=O)[CH-]C(=O)c1ccccc1.C[C@]12CCC(=O)C=C1CC[C@@H]1C2CC[C@@]2(C)C1CC[C@]2(C)[O-].C[C@]12CCC(=O)C=C1CC[C@@H]1C2CC[C@@]2(C)C1CC[C@]2(C)[O-].Cl.[Ti+4] (some centres undefined)	inactive
O=C(CC(Cl)=C(Cl)Cl)c1cccc(Cl)c1Cl	inactive
O=C(Nc1nc2ccccc2s1)Nc1ccc([N+](=O)[O-])cc1Cl	inactive
COc1cc2cc(Oc3ccc(NC(=O)Nc4ccc(Cl)c(Cl)c4)cc3)c(C)nc2cc1OC	inactive

Shifting focus to the molecule that follows.
Input line: Recorded test outcome, item `COc1cccc(/C=C2\COc3ccc(-c4ccccc4)cc3C2=O)c1`
Output line: inactive

====

Entries and their GI50
Test system: HCT-116 colon
TEST DETAILS: NCI tumour cell line growth inhibition, 48 h

Solved cases (5 shown):
COMPOUND	MEASUREMENT TARGET	GI50
C=CC(=O)N1CC2(CC(n3nc(-c4ccc5c(cnn5C)c4)c(-c4c(Cl)c(C)cc5[nH]ncc45)c3C)C2)C1	HCT-116 colon	1.83 µM
O=[N+]([O-])c1cccc(C2CC(c3ccccc3)=Nc3ccccc3S2)c1 (configuration not stated)	HCT-116 colon	2.94 µM
CN(CC(=O)N(Cc1ccc(C2CCCCC2)cc1)c1ccc(C(=O)O)cc1)S(=O)(=O)c1c(F)c(F)c(F)c(F)c1F	HCT-116 colon	1.93 µM
CCn1c(-c2nonc2N)nc2cncc(C(=O)N3CC[C@H](N)C3)c21	HCT-116 colon	9.9 µM
CCC(=O)c1c(C(F)(F)F)n([O-])c2cc(F)c(F)cc2[n+]1=O	HCT-116 colon	0.366 µM

Input line: Specify reported GI50 for the compound shown: `CN1CCN(CCCOc2cccc3nc(Nc4ccc(Cl)c(C(F)(F)F)c4)ccc23)CC1`
Output line: 1.5 µM

Input line: Specify reported GI50 for the compound shown: `O=C1NC(=NCCCc2ccccc2)S/C1=C\c1ccc2ncccc2c1`
Output line: 3.6 µM

Input line: Specify reported GI50 for the compound shown: `CCN1CCN(C(=O)[C@]23CCC(C)(C)C[C@@H]2C2=CC[C@@H]4[C@@]5(C)C/C(=C/c6ccncc6)C(=O)C(C)(C)[C@@H]5CC[C@@]4(C)[C@]2(C)CC3)CC1`
Output line: 1.35 µM

Input line: Specify reported GI50 for the compound shown: `Oc1[nH]c2ccccc2c1/C=c1/cc2c(c(-c3ccc(F)cc3)n1)=Nc1ccccc1-2`
Output line: 1.01 µM

Input line: Specify reported GI50 for the compound shown: CSc1ccc2c(c1)C(N1CCN(C)CC1)Cc1ccccc1S2 (configuration not stated)
Output line: 1.98 µM

Input line: Specify reported GI50 for the compound shown: `COc1cc2cc(Oc3ccc(NC(=O)Nc4ccc(Cl)c(Cl)c4)cc3)c(C)nc2cc1OC`
Output line: 2.26 µM

Input line: Specify reported GI50 for the compound shown: `N=c1c2c(=N)n3c(nc2nc2n1-c1ccccc1Sc1ccccc1-2)sc1cc(Cl)ccc13`
Output line: 1.86 µM

====

System: KM20L2 colon
TEST DETAILS: NCI tumour cell line growth inhibition, 48 h
Entries and their TGI

Solved cases (4 shown):
COMPOUND	TGI
Nc1ncnc2c1ncn2C1CC(OCc2ccccc2[N+](=O)[O-])C(CO)O1 (configuration not stated)	> 50 µM
COc1cccc(/C=N/[N-]C(N)=O)c1[O-].[Cu+2].[OH3+].c1ccc(-c2ccccn2)nc1	> 100 µM
NS(=O)(=O)OCCCCCCCOS(N)(=O)=O	1470 µM
COc1ccc(/C=C/C(=O)c2sc(-n3nc(-c4ccccc4)cc3-c3ccccc3)nc2C)cc1	> 100 µM

Input line: Specify reported TGI for the compound shown: CC(=O)O[C@H]1CC[C@@]2(C)C(=CC[C@@H]3C2CC[C@]2(C)Nc4nc5ccccc5cc4CC32)C1 (some centres not stated)
Output line: 3.66 µM

Input line: Specify reported TGI for the compound shown: `CC(=O)NNc1nc(C)c(C(=O)NNC(=O)C(=O)Nc2ccc(Cl)cc2Cl)s1`
Output line: > 100 µM

Input line: Specify reported TGI for the compound shown: `CC1=C(C(=O)Nc2cc(F)c(F)cc2F)C(c2ccc([N+](=O)[O-])cc2)C(C(=O)Nc2cc(F)c(F)cc2F)=C(C)N1`
Output line: > 100 µM

Input line: Specify reported TGI for the compound shown: `CCOC(=O)N(c1ccccc1)N(CC)C(=O)/C(C)=N/Nc1ccc([N+](=O)[O-])cc1`
Output line: 31.3 µM

Input line: Specify reported TGI for the compound shown: `CN(c1ccccc1)c1c(Cl)c(=O)oc2c1ccc1occc12`
Output line: > 100 µM

Input line: Specify reported TGI for the compound shown: `Brc1ccc2ns[s+]c2c1`
Output line: > 100 µM

Input line: Specify reported TGI for the compound shown: `O=C(NNc1ccccc1)/C(=C/c1ccc2c(c1)OCO2)NC(=O)c1ccccc1`
Output line: > 100 µM

Input line: Specify reported TGI for the compound shown: `CC1(C)C(=O)C(C)(C)C1=S`
Output line: > 100 µM

====

Entries and their TGI
Test system: SW-620 colon
TEST DETAILS: NCI tumour cell line growth inhibition, 48 h

Solved cases (5 shown):
COMPOUND	TGI
CSC1NC(c2ccc(Cl)cc2)=C(C#N)C(=O)N1C1OCC(OC(C)=O)C(OC(C)=O)C1OC(C)=O (stereo unspecified)	> 100 µM
CCCCCCCCCCCC[n+]1ccc2ccccc2c1	2.56 µM
COc1cc2c3c(n(C)c(=O)c2cc1OC)-c1ccc(C#N)cc1C3=O	> 100 µM
COc1cc2cc(Oc3ccc(NC(=O)Nc4ccc(Cl)c(Cl)c4)cc3)c(C)nc2cc1OC	15.6 µM
CC(=O)N1CCn2c1nc1cc(Cl)ccc12	> 100 µM

Input line: Specify reported TGI for the compound shown: `Cc1c(/C=N/N(C)C)oc2c1cc(O)c1ncccc12`
Output line: > 100 µM
